From: ChEMBL document CHEMBL3885861

Organism: Rattus norvegicus
Assay info: Open TG-GATES - Regimen: Daily Repeat
Type: toxicity, organism-based, Sprague-Dawley
Design: regimen Daily Repeat, gender Male, age 6 weeks
Measurement conditions: in vivo, po, 300 mg/kg, […], tissue Blood, route gavage, dose level Middle, time 14 day
Let's look at some compounds and their measured APTT.
Give the value in s but do not write s after it.

Would you please look over these solved cases?
CC(S)C(=O)NCC(=O)O (centres undefined): 23.7
O=C(O)c1ccccc1Nc1ccccc1: 15.8
CC(=O)[C@@]1(O)CC[C@H]2[C@@H]3C=C(Cl)C4=CC(=O)CC[C@]4(C)[C@H]3CC[C@@]21C: 28.4

Proceeding to the next compound to report its APTT.
What value of APTT has been reported for the following compound? CCCCNC(=O)NS(=O)(=O)c1ccc(C)cc1 [TOLBUTAMIDE]
18
